target: Glucocorticoid receptor (Homo sapiens) (UniProt P04150); assay: GR-EFC Redistribution (AID 451); conditions: CHO-K1 GR-EFC translocation, beta-gal luminescence, 2 h; further: potency means the concentration at half of the fitted maximal effect
Sequence (P04150 whole entry, looked up): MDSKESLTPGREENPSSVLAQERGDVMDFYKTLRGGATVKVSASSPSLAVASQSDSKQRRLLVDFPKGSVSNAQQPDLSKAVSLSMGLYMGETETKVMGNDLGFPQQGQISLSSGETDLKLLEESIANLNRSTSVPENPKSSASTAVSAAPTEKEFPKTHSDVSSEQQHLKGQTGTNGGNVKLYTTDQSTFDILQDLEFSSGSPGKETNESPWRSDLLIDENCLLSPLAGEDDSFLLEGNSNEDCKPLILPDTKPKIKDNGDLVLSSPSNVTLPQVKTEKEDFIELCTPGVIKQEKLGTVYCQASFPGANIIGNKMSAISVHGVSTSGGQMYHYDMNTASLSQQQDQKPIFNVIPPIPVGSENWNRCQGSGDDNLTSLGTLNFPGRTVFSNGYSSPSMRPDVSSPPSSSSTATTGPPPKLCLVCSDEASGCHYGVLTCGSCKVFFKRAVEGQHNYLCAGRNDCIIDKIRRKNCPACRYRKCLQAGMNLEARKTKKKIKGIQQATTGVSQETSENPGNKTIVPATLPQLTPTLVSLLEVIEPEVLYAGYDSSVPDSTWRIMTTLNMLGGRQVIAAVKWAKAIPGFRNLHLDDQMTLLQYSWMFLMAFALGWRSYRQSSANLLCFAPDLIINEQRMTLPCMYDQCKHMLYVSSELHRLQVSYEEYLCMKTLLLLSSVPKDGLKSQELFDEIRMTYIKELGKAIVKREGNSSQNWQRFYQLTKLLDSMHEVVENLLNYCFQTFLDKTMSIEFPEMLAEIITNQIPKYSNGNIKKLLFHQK
Active and inactive are the calls of the source. The call rests on the fitted dose curve.
Can you answer with just one of these options? active, inactive

Example results:
Item smiles	Target entity	Class
O=c1c(-c2ccc(F)cc2)nc2cnc(N3CCOCC3)nc2n1CCc1ccccc1	Glucocorticoid receptor (Homo sapiens) (UniProt P04150)	inactive
COc1ccc(NC(=O)N2CCCC3(CCN(C(=O)c4cccc(F)c4)CC3)C2)cc1	Glucocorticoid receptor (Homo sapiens) (UniProt P04150)	active
COC(=O)N1CCC[C@@]2(CCN(c3ccccc3)C2)C1	Glucocorticoid receptor (Homo sapiens) (UniProt P04150)	inactive
O=S(=O)(c1ccccc1)N1CCC2(CC1)CN(Cc1nccs1)C2	Glucocorticoid receptor (Homo sapiens) (UniProt P04150)	inactive

We now examine a further compound.
Answer briefly: the call reported for COCCn1c(=O)c(-c2ccc(F)cc2)nc2cnc(Oc3ccc(OC)cc3)nc21 in this assay. inactive

====

tested on: DIV30; test: qHTS profiling for inhibitors of Plasmodium falciparum proliferation (AID 504749); further: potency means the concentration at half of the fitted maximal effect; nearly all actives have a fitted effect of over 60% in size; conditions: P. falciparum in erythrocytes, SYBR Green DNA, 72 h; series mostly up to 12.8 µM
Records with an inconclusive call do not appear. Activity calls are given as the source filed them. Calls come from the whole dose curve; as a rule, active = well fitted inhibition curve with a large enough effect; inconclusive = small, poorly fitted or top-dose-only effect; inactive = flat fitted curve, though single readings scatter.
Valid outcomes are listed here; reply with one: active, inactive

Look up the recorded call for CCN(CC)CCC[C@H](C)Nc1ccnc2cc(Cl)ccc12 in this test. active

====

assay: NFAT Signaling Pathway (AID 444); conditions: Jurkat NFAT-bla M1, carbachol, beta-lactamase ratio, 5 h; at 7.69 µM (top of the series) unless noted;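 further: carbachol stimulus at about its EC50 of 1 µM final; on the % scale 0 is the no-effect control and ±100 the full control effect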
Records with an inconclusive call do not appear.
Measurement kind: activity change, negative = inhibition (%)
Your answer should be a plain number; it is taken to be in %.

Item smiles	Measurement kind	Value
COCC(=O)N1CCC2(CCCN(c3ccccn3)C2)CC1	activity change, negative = inhibition	-15.3
Cn1c(=O)cnc2cnc(Nc3ccccc3)nc21	activity change, negative = inhibition	-6.55
COc1ccccc1-c1cc(NCc2cccs2)ncn1	activity change, negative = inhibition	9.61
COc1cccc(-c2cc(NCc3cnc(C)cn3)ncn2)c1	activity change, negative = inhibition	-0.299
Cn1c(=O)c(-c2ccc(F)cc2)nc2cnc(Oc3ccccc3)nc21	activity change, negative = inhibition	5.5

compound CCNc1ncc2nc(-c3cn(C)c4ccccc34)c(=O)n(Cc3cccs3)c2n1 , activity change, negative = inhibition observed: 8.06

# activity change, negative = inhibition of CNc1nc(-c2ccccc2OC)nc2ccccc12 = -10.4

====

target: Glucocorticoid receptor (Homo sapiens) (UniProt P04150); test: GR-GFP Redistribution (AID 450); details: U2OS GR-GFP nuclear translocation, laser cytometry, 2 h; further: potency means the concentration at half of the fitted maximal effect
The source made the active and inactive calls.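 The calls were made as follows: active = compounds whose dose series gives a full or clear partial fitted curve of increased nuclear translocation; inconclusive = weak partial curve or effect only at the top dose; inactive = no dose-dependent translocation response.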
Listed below: Potency values for each entry.

Item smiles	Measurement kind	Value
FC(F)(F)c1ccccc1-c1cncnc1NCc1cccs1	Potency	> 46 µM (inactive)
O=c1c(-c2ccccc2)nc2cncnc2n1Cc1ccc(F)cc1	Potency	> 9.22 µM (inactive)

The recorded Potency for entry Cc1ccccc1-c1ccc2ncnc(NCc3cccs3)c2c1 equals > 46 µM (inactive)

Memo: CS(=O)(=O)Nc1cccc(-c2cncnc2-n2ccnc2)c1 , reported Potency: > 46 µM (inactive)

For reference, reported Potency for CS(=O)(=O)Nc1cccc(-c2ccc3ncnc(N4CCOCC4)c3c2)c1 stands at > 46 µM (inactive)

What the record says about CC1(C)Oc2ccc(C#N)cc2[C@H](N2CCCC2=O)[C@H]1O : Potency is > 46 µM (inactive)

For record O=c1c(-c2cc(F)cc(F)c2)nc2cnc(N3CCNCC3)nc2n1Cc1ccc(F)cc1 the listed Potency is > 9.22 µM (inactive)

Please fill in: Potency reported for COCCn1c(=O)c(-c2cccs2)nc2cnc(OC)nc21 = > 9.22 µM (inactive)

Potency measured on O=c1c(-c2cccc(Cl)c2)nc2cncnc2n1-c1ccccc1 = > 9.22 µM (inactive)

Please fill in: Potency reported for Clc1ccccc1-c1nc(NCc2cccs2)c2ccccc2n1 = > 46 µM (inactive)

Query CN(C)c1ncc2nc(-c3cc(F)cc(F)c3)c(=O)n(Cc3ccc(F)cc3)c2n1 yields Potency of > 46 µM (inactive)

Record summary for COc1ccccc1CNc1ncncc1-c1cccc(NS(C)(=O)=O)c1 : reported Potency = > 46 µM (inactive)

Recorded result, COc1ccccc1CCn1c(=O)c(C)nc2cncnc21 , Potency: > 9.22 µM (inactive)

Note to self: Potency recorded for COc1ccc(CNc2ccnc(-c3ccccc3Cl)n2)c(OC)c1 was > 46 µM (inactive)

According to the records, this molecule Nc1nc2n[nH]nc2c(=O)[nH]1 displays Potency of > 20.6 µM (inactive)

====

target: Ubiquitin carboxyl-terminal hydrolase 1 (Homo sapiens) (UniProt O94782); assay: Inhibitors of USP1/UAF1: Pilot qHTS (AID 504865); details: purified USP1/UAF1, Ub-rhodamine cleavage fluorescence; series mostly up to 54.9 µM;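 further: rhodamine fluorescence freed from ubiquitin-rhodamine substrate followed over time; top concentration of the series differs between compounds; on the % scale 0 is the no-effect control and ±100 the full control effect; nearly all actives have a fitted effect of over 35% in size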
Sequence (O94782 whole entry, looked up): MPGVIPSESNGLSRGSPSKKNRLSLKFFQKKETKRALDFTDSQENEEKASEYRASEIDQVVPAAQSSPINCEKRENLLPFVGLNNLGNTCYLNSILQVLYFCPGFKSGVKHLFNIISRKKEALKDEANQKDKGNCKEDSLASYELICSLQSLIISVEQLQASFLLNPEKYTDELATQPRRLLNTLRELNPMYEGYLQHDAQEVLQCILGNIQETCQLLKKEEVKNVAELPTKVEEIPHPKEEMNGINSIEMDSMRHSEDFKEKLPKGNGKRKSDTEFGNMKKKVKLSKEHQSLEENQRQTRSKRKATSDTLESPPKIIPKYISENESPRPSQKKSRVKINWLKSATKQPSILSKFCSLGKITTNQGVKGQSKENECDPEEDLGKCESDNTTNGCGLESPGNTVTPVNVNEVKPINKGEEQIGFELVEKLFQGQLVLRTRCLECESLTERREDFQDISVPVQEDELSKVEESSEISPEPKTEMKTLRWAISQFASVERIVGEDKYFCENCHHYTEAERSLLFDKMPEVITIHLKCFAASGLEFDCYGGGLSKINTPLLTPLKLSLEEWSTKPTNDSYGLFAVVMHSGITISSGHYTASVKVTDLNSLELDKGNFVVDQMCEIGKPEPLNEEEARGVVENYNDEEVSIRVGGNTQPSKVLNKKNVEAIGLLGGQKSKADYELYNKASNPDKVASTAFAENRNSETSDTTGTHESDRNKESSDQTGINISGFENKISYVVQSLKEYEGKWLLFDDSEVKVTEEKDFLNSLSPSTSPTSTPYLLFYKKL
Records with an inconclusive call do not appear. Activity calls are given as the source filed them. Calls follow the shape of the dose curve; as a rule, active = well fitted inhibition curve with a large enough effect; inconclusive = small, poorly fitted or top-dose-only effect; inactive = flat fitted curve, though single readings scatter.
Respond using exactly one of the listed classes: y = active, n = inactive

Compound	Class
O=c1c(-c2cc(F)cc(F)c2)nc2cnc(N3CCOCC3)nc2n1CCc1ccccc1	n
CCNc1ncc2nc(-c3ccccc3)c(=O)n(Cc3cccc(OC)c3)c2n1	n

Next up:
Status in this test for Cc1ccccc1-c1cncnc1N1CCN(C)CC1 ? n

====

Entries and their Potency
biological target: Glucocorticoid receptor (Homo sapiens); assay: GR-GFP Redistribution (AID 450); conditions: U2OS GR-GFP nuclear translocation, laser cytometry, 2 h; further: potency means the concentration at half of the fitted maximal effect
Calls of active or inactive are those of the source.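 The calls were made as follows: active = compounds whose dose series gives a full or clear partial fitted curve of increased nuclear translocation; inconclusive = weak partial curve or effect only at the top dose; inactive = no dose-dependent translocation response.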

Lab note: Cc1ccccc1-c1cc(N(C)Cc2ccco2)ncn1 gave Potency of > 46 µM (inactive)

Note to self: Potency recorded for O=c1c(-c2cccc(Cl)c2)nc2cncnc2n1Cc1ccccc1 was > 9.22 µM (inactive)

For reference, reported Potency for O=c1c(-c2cccs2)nc2cnc(Oc3ccccc3)nc2n1-c1ccccc1 stands at > 9.22 µM (inactive)

The recorded Potency for COc1ccc2[nH]cc(CCNc3ccnc(-c4ccc(C(=O)N(C)C)cc4)n3)c2c1 is > 46 µM (inactive)

Sample c1cncc(CNc2nc(-c3ccc4c(c3)OCO4)nc3ccccc23)c1 ; Potency observed: > 46 µM (inactive)

Sure, the documented Potency for O=c1c(CCc2ccccc2)nc2cncnc2n1-c1ccccc1 is > 9.22 µM (inactive)

====

assay: AP1 Signaling Pathway (AID 357); details: ME-180 (cervical carcinoma) AP-1-bla reporter, EGF-induced, beta-lactamase ratio, 5 h; at 7.69 µM (top of the series) unless noted;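 further: ME-180 reporter cells stimulated with EGF at its EC50 level; on the % scale 0 is the no-effect control and ±100 the full control effect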
Records with an inconclusive call do not appear. Active and inactive are the calls of the source. Calls follow the shape of the dose curve; as a rule, active = well fitted curve in either direction with a large enough effect (not every such curve was filed as active); inconclusive = small, poorly fitted or top-dose-only effect, or another doubt; inactive = flat fitted curve, though single readings scatter.
Measurement kind: activity change, negative = inhibition

Recorded result, O=S(=O)(c1ccccc1)N1CCC2(CCCN(Cc3ccncc3)C2)CC1 , activity change, negative = inhibition: -20.2% (inactive)

Entry O=C(Nc1cccc(F)c1)N1CCCC2(CCN(C(=O)c3cnccn3)CC2)C1 — recorded activity change, negative = inhibition = -5.64% (inactive)

Per the records, this compound ( N#Cc1cccc(-c2cncnc2NCc2cccnc2)c1 ) has activity change, negative = inhibition equal to 13% (inactive)

// activity change, negative = inhibition lookup, compound = Cc1cccc(CNc2ccnc(-c3ccc(C(=O)N(C)C)cc3)n2)c1 , result: -17.2% (inactive)

// activity change, negative = inhibition lookup, compound = CCNc1ncc2nc(-c3ccccc3)c(=O)n(C)c2n1 , result: -13.4% (inactive)

The value of activity change, negative = inhibition measured for the compound O=C(c1cnccn1)N1CCC2(CC1)CCN(c1cccc(-c3ccccc3)c1)CC2 turned out to be -9.46% (inactive)

The compound listed as COc1ccc(Oc2ncc3ncc(=O)n(CCc4ccccc4)c3n2)cc1 has a reported activity change, negative = inhibition of -14.7% (inactive)

Entry CC(C)CN1CC2(CCN(C(=O)c3csnn3)CC2)C1 ; activity change, negative = inhibition = -4.73% (inactive)

Entry O=C(c1ccco1)N1CCC2(CC1)CN(c1ccccn1)C2 , activity change, negative = inhibition reported as 2.14% (inactive)

So, O=c1c(-c2ccc(Cl)cc2)nc2cnc(N3CCOCC3)nc2n1C1CC1 ? Its activity change, negative = inhibition was 6.61% (inactive)

Query Cc1ccccc1-c1cncnc1N1CCNCC1 yields activity change, negative = inhibition of -3.42% (inactive)

The reported value for O=c1c(-c2cccc(Cl)c2)nc2cncnc2n1-c1ccccc1 in terms of activity change, negative = inhibition is -18.9% (inactive)

Consider COc1ccc(C(=O)N2CCC[C@@]3(CCN(CC(C)C)C3)C2)cc1 . Its measured activity change, negative = inhibition is -12.8% (inactive)

====

biological target: 3',5'-cyclic-AMP phosphodiesterase 4B (Homo sapiens); experiment: qHTS Assay for Inhibitors of PDE-IV (AID 607); conditions: HEK293 ACTOne CNG channel cells, membrane potential fluorescence; series mostly up to 22.9 µM; further: % of control where 0% means no effect
Inconclusive results are not listed. The source made the active and inactive calls. Calls come from the whole dose curve; as a rule, active = well fitted activation curve with a large enough effect in the main read-out, with a control signal flat (not every such curve was filed as active); inconclusive = small, poorly fitted or top-dose-only effect, or effect the other way, or a change in a side signal; inactive = flat fitted curve, though single readings scatter.
Measurement kind: outcome

Item smiles	outcome
Cc1cnc(CNc2ncnc3ccc(-c4ccccc4C#N)cc23)cn1	inactive
O=c1c(CCc2ccccc2)nc2cncnc2n1C1CC1	inactive
CNc1ccnc(-c2cccc(NS(C)(=O)=O)c2)n1	inactive
c1cncc(-c2nc(-n3ccnc3)c3ccccc3n2)c1	inactive
c1ccc(CNc2ncncc2-c2ccoc2)cc1	inactive

Notebook: COc1ccc(-n2c(=O)c(-c3ccccc3)nc3cnc(N4CCOCC4)nc32)cc1 , outcome read as inactive

// outcome value for N#CCCn1c(=O)c(-c2cccs2)nc2cnc(N3CCOCC3)nc21 : inactive

Looking up COc1ccc(-c2nc3cnc(N(C)C)nc3n(C3CC3)c2=O)cc1 , I see its outcome listed as inactive
